System: HepG2
Assay: cell viability relative to DMSO; higher = less toxic
Conditions: 72 h; 1000 nM
Consider the following compounds; for each one, report its cell viability.
Number only, in %; omit the unit.

Entry under review: "Cc1cc(O)c2c(c1)C(=O)c1cccc(O)c1C2=O" . Reported cell viability? 95.7

Could you do the same for Cc1ccc(Cl)c(OCC(O)CNC(C)(C)C)c1 (stereo not given) , please? 97.8

Could you do the same for Cc1ccc(-c2n[nH]c3c2C(c2cccc(O)c2)N(c2ccc(C(=O)O)cc2)C3=O)cc1 (stereo not given) , please? 93.4

Could you do the same for NC(=O)C[S+]([O-])C(c1ccccc1)c1ccccc1 (stereo not given) , please? 96.1

Could you do the same for "COC(=O)C[C@](O)(CCCC(C)(C)O)C(=O)O[C@@H]1C(OC)=C[C@]23CCCN2CCc2cc4c(cc2[C@H]13)OCO4" , please? 6

Hey, just so you know, these numbers are from the supplement of paper PMC13380429.
